experiment: NCI Yeast Anticancer Drug Screen. Data for the rad50EPP+ strain (AID 151);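 also: 0% = growth of vehicle-treated control cultures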; conditions: S. cerevisiae rad50 mutant strain, at 3.7 µM, stronger effect = higher value
The panel holds about 79,000 compounds, 15% with a hit somewhere; the sample as a whole holds those more often.
Please go through the items and note down their growth inhibition.
Answers are plain numbers, in %.

Some solved entries appear below for comparison.
[[record]]
compound = "CCCCCCCCCCCCCCC(C(=O)[O-])[n+]1ccccc1 (stereo unspecified)"
value_units = "%"
measured_result = 4

[[record]]
compound = "CC(C(=O)N1C(=O)N(C(=O)[C@H](C)C(O)c2ccccc2)[C@H](c2ccccc2)[C@H]1c1ccccc1)[C@@H](O)c1ccccc1 (stereo partly specified)"
value_units = "%"
measured_result = -4

[[record]]
compound = "CC(=O)[O][Bi]([c]1ccccc1)[c]1ccccc1"
value_units = "%"
measured_result = 39

[[record]]
compound = "CNC(=O)OCc1c(COC(=O)NC)c(-c2ccc(Cl)c(Cl)c2)n2c1CCC2"
value_units = "%"
measured_result = -21

[[record]]
compound = "C=CCC1=C(C)C(OC(=O)/C=C/c2ccccc2)CC1=O (stereo unspecified)"
value_units = "%"
measured_result = 0


Go through the items and report each one's growth inhibition.
1. CCN(CC)C(C)(C)C(=O)/C=C/c1ccccc1
2. Cc1ccc(C2C(Cl)C(=O)N2n2cnc3ccccc3c2=O)cc1 (stereo unspecified)
3. COc1ccc(N=C2C(=O)Nc3ccc(Br)cc32)cc1
4. COc1ccc(Br)c(C(=O)Sc2nnnn2-c2cccc(Cl)c2)c1

// result
1: 6; 2: -6; 3: 1; 4: -19

Go through the items and report each one's growth inhibition.
1. C/C(=N\NC(=S)N1CCCCC1)c1cccc(C)n1
2. CN(N=O)N1C(=O)SCC(c2ccccc2)(c2ccccc2)C1=O

// result
1. 38
2. 0

* * *

Please go through the items and note down their growth inhibition.
assay: NCI Yeast Anticancer Drug Screen. Data for the rad14 strain (AID 159);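 also: 0% = growth of vehicle-treated control cultures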; settings: S. cerevisiae rad14 strain growth inhibition; at 1.2 µM; stronger effect = higher value
This is part of a sample that, as a whole, favours compounds with a hit. Of some 79,000 tested, about 15% had one in any assay.
Answers are plain numbers, in %.

Go through the items and report each one's growth inhibition.
1. CC(C)(CN1CCCCC1)C(=O)CC(SCCS(=O)(=O)O)c1ccc(Br)cc1 (stereo not given)
2. CC(=O)OC1CCC2(C)C(=CCC3C4CCC5(OC6CC(C)CN(C(C)=O)C6C5C)C(C)=C4C(=O)C32)C1 (stereo not given)
3. COC1=CC(=O)C(C2(OC(C)C)OC(=O)C(Cl)=C2Cl)=CC1=O (stereo not given)
4. COc1cc(CC2CC(c3ccc4c(c3)OCO4)OC2=O)cc(OC)c1OC (stereo not given)
5. COc1cc(C2c3cc4c(cc3OC(Nc3ccccc3)C2C)OCO4)cc(OC)c1O (stereo not given)

// result
6
-30
3
-2
1

* * *

Please go through the items and note down their growth inhibition.
assay: NCI Yeast Anticancer Drug Screen. Data for the sgs1 strain (AID 173);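 also: 0% = growth of vehicle-only control cultures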; details: S. cerevisiae sgs1 mutant, at 11.0 µM, stronger effect = higher value
This is part of a sample that, as a whole, favours compounds with a hit. Of some 79,000 tested, about 15% had one in any assay.
Numbers only, in %.

Go through the items and report each one's growth inhibition.
1. COc1ccc(OC)c2cc3ccccc3cc12
2. Cc1ccc(N)c(S)c1
3. Cc1ccc(Nc2nc3c(=O)n(C)c(=O)n(C)c3nc2Nc2ccc(C)cc2)cc1
4. Clc1ccc(SC(/C=C/NNC2=NC(c3ccccc3)C(c3ccccc3)=NN2)c2ccccc2)cc1 (stereo unspecified)
5. CCCCCCCCCCC1CCC(=O)O1 (stereo unspecified)

// result
-5
14
1
4
3

Go through the items and report each one's growth inhibition.
1. O=C(c1ccc(Cl)cc1Cl)C(Cl)Cl
2. Cc1ccc(S(=O)(=O)NC(=O)NC2=NC(C)(C)N(c3ccc(Cl)c(Cl)c3)C(N)=N2)cc1
3. O=[N+]([O-])/C=C/c1ccc2ccccc2c1

// result
1. 14
2. -1
3. 100

* * *

Assay: NCI Yeast Anticancer Drug Screen. Data for the rad52 strain (AID 147);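 also: 0% = growth of vehicle-treated control cultures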
Settings: S. cerevisiae rad52 mutant growth inhibition; at 33.0 µM; stronger effect = higher value
Description: Growth inhibition of yeast strains with defined genetic alterations is measured as a screen for potential anti-cancer activity. Selected strains with alterations in DNA damage repair or cell cycle control were exposed to compounds and growth inhibition was measured relative to vehicle treated controls. The strain used in this assay is rad52
This is part of a sample that, as a whole, favours compounds with a hit. Of some 79,000 tested, about 15% had one in any assay.
measured_metric: growth inhibition (%)
One number for each entry, in %.

Some solved entries appear below for comparison.
[[record]]
molecule = "Cc1c(Cl)ccc2c1S(=O)(=O)c1cccc(Cl)c1-2"
measured_metric = "growth inhibition"
value_units = "%"
measured_result = -9

[[record]]
molecule = "O=C1OC(CCl)CN1/N=C/c1ccc([N+](=O)[O-])o1 (stereo unspecified)"
measured_metric = "growth inhibition"
value_units = "%"
measured_result = 54

[[record]]
molecule = "C=C(CN(C)C)C(=O)c1cc(C)ccc1C"
measured_metric = "growth inhibition"
value_units = "%"
measured_result = 99

[[record]]
molecule = "CN(C)c1nc2sc3c(c2c(=O)o1)CCCC3"
measured_metric = "growth inhibition"
value_units = "%"
measured_result = 26

[[record]]
molecule = "C/C(=N\\NC(=S)N1CCCCC1)c1cccc(C)n1"
measured_metric = "growth inhibition"
value_units = "%"
measured_result = 99

[[record]]
molecule = "BrCc1cccc2ccc3cccc(CBr)c3c12"
measured_metric = "growth inhibition"
value_units = "%"
measured_result = 2

[[record]]
molecule = "CCCCCCCCCC/C=C\\C(=O)O"
measured_metric = "growth inhibition"
value_units = "%"
measured_result = -13

[[record]]
molecule = "O=C1c2ccccc2C(=O)c2c(NC3CCCCC3)ccc(Nc3ccc(S(=O)(=O)O)cc3)c21"
measured_metric = "growth inhibition"
value_units = "%"
measured_result = 37

[[record]]
molecule = "CCCCCCCCCCCCCCCCCCOCC(O)COP(=O)(O)OCC1OC(n2cc(F)c(=O)[nH]c2=O)CC1O (stereo unspecified)"
measured_metric = "growth inhibition"
value_units = "%"
measured_result = 97

[[record]]
molecule = "N#CSc1ccc(S(N)(=O)=O)cc1"
measured_metric = "growth inhibition"
value_units = "%"
measured_result = -1


Please turn your attention to the following entry.
// query Which growth inhibition is listed for C[C@H](CCC(=O)NN)[C@H]1CC[C@H]2[C@@H]3CC[C@@H]4C[C@H](O)CC[C@]4(C)[C@H]3CC[C@]12C ?
// result 6

* * *

test: NCI Yeast Anticancer Drug Screen. Data for the bub3 strain (AID 167); settings: S. cerevisiae bub3 mutant strain, at 1.2 µM, stronger effect = higher value
This is part of a sample that, as a whole, favours compounds with a hit. Of some 79,000 tested, about 15% had one in any assay.
measured_metric: growth inhibition (%)
Numbers only, in %.

Some solved entries appear below for comparison.
[[record]]
molecule = "OC(c1ccc(F)cc1)(c1ccc(F)cc1)C1CC1"
value_units = "%"
measured_result = -32

[[record]]
molecule = "COc1cc(/C=C2\\CCc3ccccc3C2=O)cc(OC)c1OC"
value_units = "%"
measured_result = -29


Go through the items and report each one's growth inhibition.
1. C[Si](C)(C)CNC(=O)OCc1ccccc1
2. O=C(NCCCCCCCN1CCCCCCC1)C(C1CCCCC1)C1CCCCC1

// result
4
65

* * *

experiment: NCI Yeast Anticancer Drug Screen. Data for the rad14 strain (AID 159);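 also: 0% = growth of vehicle-treated control cultures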; details: S. cerevisiae rad14 strain growth inhibition; at 100.0 µM
Compounds without any hit were thinned out: in the full panel of roughly 79,000, 15% have a hit. The source made the active and inactive calls. Rule as the data show it: active = growth inhibition above about 70%; inactive = the rest.
Allowed answers: true (1) = active, false (0) = inactive

[[record]]
compound = "CCC/C(Cl)=N\\OC(=O)Nc1ccc(Br)cc1"
class_name = "true (1)"

[[record]]
compound = "COc1cc(C2C3=C(COC3=O)Oc3cc4c(cc32)OCO4)ccc1O (stereo not given)"
class_name = "false (0)"


// query Given Cc1c(C(Cc2ccccc2N(C)C(=O)/C=C\C(=O)O)c2c[nH]c3ccccc23)c2ccccc2n1C (stereo not given) , state the outcome it received in this test.
// result false (0)

* * *

experiment: NCI Yeast Anticancer Drug Screen. Data for the mlh1 strain (AID 171);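 also: 0% = growth of vehicle-treated control cultures of the same strain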; details: S. cerevisiae mlh1 strain growth inhibition; at 11.0 µM
This is part of a sample that, as a whole, favours compounds with a hit. Of some 79,000 tested, about 15% had one in any assay. The source made the active and inactive calls. Rule as the data show it: active = growth inhibition above about 70%; inactive = the rest.
Allowed answers: active, inactive

Reference set (4 entries):
[[record]]
compound_string = "c1ccc2c(c1)NC(NC1Nc3ccccc3N1)N2"
class_name = "inactive"

[[record]]
compound_string = "CC(C)C1=CC2=C[C@H](O)[C@H]3C(C)(C)CCC[C@]3(C)C2=C(O)C1=O"
class_name = "active"

[[record]]
compound_string = "O=C(COC(=O)c1cc(O)c(O)c(O)c1)c1ccc(-c2ccccc2)cc1"
class_name = "inactive"

[[record]]
compound_string = "CCOc1ccc2c(c1)c(CC(=O)O)cn2C"
class_name = "inactive"


Switching to the query record.
// query Given Cn1c2ccccc2c(=O)c2cc(NC(=O)CCCCC(=O)Nc3ccc4c(c3)c(=O)c3ccccc3n4C)ccc21 , state the outcome it received in this test.
// result inactive
